molecular target: Neuronal acetylcholine receptor subunit alpha-7 (Rattus norvegicus); experiment: Displacement of [3H]epibatidine from rat alpha7 nAChR transfected in HEK293 cells by liquid scintillation counting
Sequence (Q05941 whole entry): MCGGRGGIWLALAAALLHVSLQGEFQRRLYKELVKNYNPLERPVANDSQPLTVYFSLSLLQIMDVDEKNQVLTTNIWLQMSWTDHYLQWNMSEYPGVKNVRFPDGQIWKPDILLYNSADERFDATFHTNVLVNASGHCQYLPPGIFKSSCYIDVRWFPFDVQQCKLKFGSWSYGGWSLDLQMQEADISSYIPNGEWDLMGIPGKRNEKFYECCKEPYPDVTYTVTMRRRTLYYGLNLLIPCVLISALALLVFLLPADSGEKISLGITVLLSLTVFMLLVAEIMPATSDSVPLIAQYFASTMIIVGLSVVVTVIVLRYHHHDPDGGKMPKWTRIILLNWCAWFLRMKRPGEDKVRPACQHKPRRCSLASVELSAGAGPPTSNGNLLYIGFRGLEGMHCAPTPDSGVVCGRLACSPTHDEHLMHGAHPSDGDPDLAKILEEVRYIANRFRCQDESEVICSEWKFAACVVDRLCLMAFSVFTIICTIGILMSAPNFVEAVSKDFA
pKi: −log10 of the molar value.
MEASURED_PROPERTY: pKi

Q: Consider the compound `c1ccc(-c2ccc(N3CCCCC3)cc2)cc1` and give its recorded pKi.
Ans: < 5.00

New cases:
Q: Determine from records and report pKi for `O=C(CCCCN1CC2(COC2)C1)Nc1ccc(-c2cccnc2)cc1`
Ans: < 5.00

Q: Tell me its pKi given `CN1C[C@@H]2C[C@H]1CN2CCCCNC(=O)c1ccc(-c2cccnc2)cc1` as the entry.
Ans: < 5.00
